# Experimental details: Mouse plasma pharmacokinetics after a single 25 mg/kg sc dose (LC-MS, non-compartmental model)
# Measurement context: female, BALB/c, mouse, plasma, sc, 25 mg/kg
Decide using AUC(0-t): a value greater than or equal to 20 µg·h/mL is MET, a smaller one is NOT MET.

- Molecule: "C[C@@H](O)[C@H]1C(=O)N2C(C(=O)[O-])=C(SCCc3ccccc3)[C@H](C)[C@H]12.[Na+]"
  Class: "NOT MET"
- Molecule: "C[C@@H](O)[C@H]1C(=O)N2C(C(=O)[O-])=C(SCCC(=O)N3CCOCC3)[C@H](C)[C@H]12.[Na+]"
  Class: "NOT MET"
- Molecule: "C[C@@H](O)[C@H]1C(=O)N2C(C(=O)O)=C(S[C@@H]3CN[C@H](C(=O)N(C)C)C3)[C@H](C)[C@H]12 [Meropenem, reference compound]"
  Class: "NOT MET"
- Molecule: "CSC1=C(C(=O)[O-])N2C(=O)[C@H]([C@@H](C)O)[C@H]2[C@H]1C.[Na+]"
  Class: "MET"
- Molecule: "C[C@@H](O)[C@H]1C(=O)N2C(C(=O)[O-])=C(SC3Cn4cnc[n+]4C3)[C@H](C)[C@H]12 (some centres unmarked) [Biapenem, reference compound]"
  Class: "MET"

---

# Experimental details: in vivo
# Measurement context: female, BALB/c, mouse, sc, 25 mg/kg
A collection of compounds and their measured half-life

- Cpd smiles: "C[C@@H](O)[C@H]1C(=O)N2C(C(=O)O)=C(SCC(F)(F)F)[C@H](C)[C@H]12"
  half-life: "14.5 min"
- Cpd smiles: "C[C@@H](O)[C@H]1C(=O)N2C(C(=O)O)=C(SCC(=O)OC(C)(C)C)[C@H](C)[C@H]12"
  half-life: "13.8 min"

---

# Experimental details: Mouse plasma pharmacokinetics after a single 25 mg/kg sc dose (LC-MS, non-compartmental model)
# Measurement context: female, BALB/c, mouse, plasma, sc, 25 mg/kg

- Compound: "C[C@@H](O)[C@H]1C(=O)N2C(C(=O)O)=C(S[C@@H]3CN[C@H](C(=O)N(C)C)C3)[C@H](C)[C@H]12 [Meropenem, reference compound]"
  Unit text: "µg/mL"
  Cmax: 1.34
- Compound: "C[C@@H](O)[C@H]1C(=O)N2C(C(=O)[O-])=C(SC3Cn4cnc[n+]4C3)[C@H](C)[C@H]12 (some centres unmarked) [Biapenem, reference compound]"
  Unit text: "µg/mL"
  Cmax: 55.6
- Compound: "C[C@@H](O)[C@H]1C(=O)N2C(C(=O)[O-])=C(SCCC(=O)N3CCOCC3)[C@H](C)[C@H]12.[Na+]"
  Unit text: "µg/mL"
  Cmax: 17.4
- Compound: "CSC1=C(C(=O)[O-])N2C(=O)[C@H]([C@@H](C)O)[C@H]2[C@H]1C.[Na+]"
  Unit text: "µg/mL"
  Cmax: 63
- Compound: "C[C@@H](O)[C@H]1C(=O)N2C(C(=O)[O-])=C(SCCc3ccccc3)[C@H](C)[C@H]12.[Na+]"
  Unit text: "µg/mL"
  Cmax: 5.19

---

# Experimental details: in vivo
# Measurement context: female, BALB/c, mouse, sc, 25 mg/kg
Reported Cmax values are given for each entry in this list.

- Compound: "C[C@@H](O)[C@H]1C(=O)N2C(C(=O)O)=C(SCC(F)(F)F)[C@H](C)[C@H]12 [JSF-2415]"
  Unit text: "ng/mL"
  Cmax: 34800
- Compound: "C[C@@H](O)[C@H]1C(=O)N2C(C(=O)O)=C(SCC(=O)OC(C)(C)C)[C@H](C)[C@H]12 [JSF-2196]"
  Unit text: "ng/mL"
  Cmax: 20500
